tested on: Bacillus subtilis; experiment: cleaved RNA product abundance (RNA/gDNA barcode ratio) relative to median wild-type variant (ratio to wild type); higher = more accumulation of the downstream cleavage product; details: experiment (reporter, strain, medium): exp 4a: truncated aprE reporter, strain BJT201 with 2% xylose (RNase J1 expressed); cleavage site: cggR-gapA (positions -7 to +36 mutated)
propertyLabel: cleaved RNA product abundance
// return just the number, without any unit appended

Give the measured cleaved RNA product abundance of `ACAGACGAAGGAGCCGCAAAGAAGTTATTATGGGATGAATAATCCCTCAATATATATATCTCTCACTTATTTAAA` .
0.503

What does the record list as cleaved RNA product abundance for `ACAGACGAAGGAGCCGCAAAGAAGTTATTAAGGAATGAATAAACCCTCAATATAAATATCTCTCACTTATTTAAA` ?
0.11

I have this sequence here, `ACAGACGAAGGAGCCGCAAAGAAATTATTAAGGGATTAATAATCCCTCAATATAAATATCTCTCACTTATTTAAA` , and I need its recorded cleaved RNA product abundance.
0.912

Would you mind telling me what cleaved RNA product abundance value was observed for `ACAGACGAAGGAGCCGCAATGAAGTTATTAAGGGATGAATAATCCCACAATATAAATATCTCTCACTTATTTAAA` ?
0.367

Report cleaved RNA product abundance for `ACAGACGAAGGAGCCGCAAAGAAGTTATTTAGGGATGAATAATCGCTCAATATAAATATCTCTCACTTATTTAAA` please.
0.0995

cleaved RNA product abundance for `ACAGACGAAGGAGCCGCAAACAAGTTATTAAGAGATGAATAATCACTCAATATAAATATCTCTCACTTATTTAAA` ?
0.126

I would be grateful if you could share the reported cleaved RNA product abundance for `ACAGACGAAGGAGCCGCAAAGAAATTATTAAGGGATGAATAAACCCTCAATATAAATATCTCTCACTTATTTAAA` .
0.49

# get_value(readout='cleaved RNA product abundance', item= `ACAGACGAAGGAGCCGCAAAGAAGTTATTAAGGGATGCATAATCCCACAATATAAATATCTCTCACTTATTTAAA` )
0.204

// query cleaved RNA product abundance value for entry `ACAGACGAAGGAGCCGCAAAGAAGTTATTAAGGGCTTAATAATCCCTCAATATAAATATCTCTCACTTATTTAAA`
0.481

Fill blank: measured cleaved RNA product abundance of the sequence `ACAGACGAAGGAGCCGCAAAGAAATTATTAAGGGATGAAAAATCCCTCAATATAAATATCTCTCACTTATTTAAA` is ____.
0.598

What measured cleaved RNA product abundance goes with `ACAGACGAAGGAGCCGCAAAGAAGTTATTAAGGGATGAATTATCCCACAATATAAATATCTCTCACTTATTTAAA` ?
0.319

Entry `ACAGACGAAGGAGCCGCAAAGACGTTATTAAGGGATGAATAATCCCTCTATATAAATATCTCTCACTTATTTAAA` : reported cleaved RNA product abundance = ?
0.572

Given the sequence `ACAGACGAAGGAGCCGCAAAGAAGTTACTAAGGGAAGAATAATCCCTCAATATAAATATCTCTCACTTATTTAAA` , what is its reported cleaved RNA product abundance?
0.138

Recorded cleaved RNA product abundance for `ACAGACGAAGGAGCCGCAAAGAAGTTATTAAGGGATCAATAATCCCTCACTATAAATATCTCTCACTTATTTAAA` , please?
0.224

Look at this sequence and give its reported cleaved RNA product abundance. `ACAGACGAAGGAGCCGCAAAGAAGTTATTAACGGATGAATAATCCCTCCATATAAATATCTCTCACTTATTTAAA`
0.129

Which cleaved RNA product abundance value belongs to `ACAGACGAAGGAGCCGCAGAGAAGTTATTAAGGTATGAATAATCCCTCAATATAAATATCTCTCACTTATTTAAA` ?
0.137

For `ACAGACGAAGGAGCCGCAAAGAAGTTATTATGGGATGAATAATCCCTCTATATAAATATCTCTCACTTATTTAAA` , what is its reported cleaved RNA product abundance?
0.223

Report cleaved RNA product abundance for `ACAGACGAAGGAGCCGCAAAGAAGTTATTAAGGAATGAATAATCCCTCAATATAAAAATCTCTCACTTATTTAAA` please.
0.161

Field request: cleaved RNA product abundance | item: `ACAGACGAAGGAGCCGCAAAGAAGTTATTAAGGGAGGAATAATCCCTCAAGATAAATATCTCTCACTTATTTAAA`
0.152

Fill in the blank: the reported cleaved RNA product abundance of `ACAGACGAAGGAGCCGCAAAGAAGTTATTAAGGGATGAATTAACCCTCAATATAAATATCTCTCACTTATTTAAA` is ____.
0.492

Reported cleaved RNA product abundance, sequence `ACAGACGAAGGAGCCGCAAAGAAGTTATTATTGGATGAATAATCCCTCAATATAAATATCTCTCACTTATTTAAA` : ____
0.149

Which cleaved RNA product abundance reading was recorded for the sequence `ACAGACGAAGGAGCCGCAAAGAAGTAAGTAAGGGATGAATAATCCCTCAATATAAATATCTCTCACTTATTTAAA` ?
0.378

Reported cleaved RNA product abundance, sequence `ACAGACGAAGGAGCCGCAAAGAAGCTATTAAAGGATGAATAATCCCTCAATATAAATATCTCTCACTTATTTAAA` : ____
0.144

Requested read-out: cleaved RNA product abundance. Entry: `ACAGACGAAGGAGCCGCAAAGAATTTATTAAGGGTTGAATAATCCCTCAATATAAATATCTCTCACTTATTTAAA`
0.388

If you can, please state the reported cleaved RNA product abundance value of `ACAGACGAAGGAGCCGCAAAGAAGTTATTAAGGGTTGAATAATCCCTCAACATAAATATCTCTCACTTATTTAAA` .
0.237

What does the data say about its cleaved RNA product abundance? Entry: `ACAGACGAAGGAGCCGCAAAGAAGTTATTAAGGGATGAAAAATCCCTCAATATCAATATCTCTCACTTATTTAAA`
0.0918

State the recorded cleaved RNA product abundance for this entry: `ACAGACGAAGGAGCCGCAAAGAAGTTATTAAGGGATGCATAATCCCTCACTATAAATATCTCTCACTTATTTAAA`
0.233

Fill blank: measured cleaved RNA product abundance of the sequence `ACAGACGAAGGAGCCGCAAAGAAGTTATTAACGGATGAATAATCCCTCAATAAAAATATCTCTCACTTATTTAAA` is ____.
0.08

Which cleaved RNA product abundance is listed for `ACAGACGAAGGAGCCGCAAAGAAGTTATTAAGGGATGACTAATCCCTCAAGATAAATATCTCTCACTTATTTAAA` ?
0.247

I'd like to know its cleaved RNA product abundance. The sequence in question is `ACAGACGAAGGAGCCGCAAAGACGTTATTAACGGATGAATAATCCCTCAATATAAATATCTCTCACTTATTTAAA`
0.165
